Recorded pEC50, one value per entry.
TESTED TARGET: T1, human CD39 (full length, on cells) (human, UniProt P49961 1-510)
T1 construct: Recombinant on CHOK1-hCD39 cells or natural on SK-MEL-28, SK-MEL-5 and MOLP-8 cells; the cell line is named under assay; also called hCD39; ENTPD1
T1 sequence: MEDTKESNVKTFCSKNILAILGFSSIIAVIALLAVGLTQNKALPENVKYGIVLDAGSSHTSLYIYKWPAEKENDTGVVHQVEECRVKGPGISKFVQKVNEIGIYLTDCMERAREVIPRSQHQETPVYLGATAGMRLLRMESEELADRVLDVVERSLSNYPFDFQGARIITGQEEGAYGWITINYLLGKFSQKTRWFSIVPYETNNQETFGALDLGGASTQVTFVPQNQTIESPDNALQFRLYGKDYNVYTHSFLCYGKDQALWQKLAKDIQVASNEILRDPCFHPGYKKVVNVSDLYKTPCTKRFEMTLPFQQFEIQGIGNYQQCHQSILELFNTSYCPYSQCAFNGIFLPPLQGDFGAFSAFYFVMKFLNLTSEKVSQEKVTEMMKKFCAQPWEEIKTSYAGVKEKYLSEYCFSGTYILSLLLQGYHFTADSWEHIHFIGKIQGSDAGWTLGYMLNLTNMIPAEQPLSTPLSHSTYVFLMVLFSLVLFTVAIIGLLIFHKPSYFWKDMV
PROCEDURE TEXT: FACS, MOLP-8 cells
Schema: pEC50 number; meaning minus log10 of the concentration expressed in molar units.

Task: Tell me the measured pEC50 of c23 (antibody, V domains shown, variable regions of mAb23 on human IgG constant regions; also called chimeric antibody c23) VH: EVQLQQSGAELLRPGASVKLSCTASGYNLKDTFLHWVKQRPEQGLEWIGRIDPANGNIKYDPKFQGKATLTADTSSNTAYLQLISLTSEDTAVYYCANSPYYYGSGYRIFDVWGAGTTVTVSS VL: QIVLTQSPAIMSASPGEKVTITCSAFSSVNYMHWYQQKPGTSPKLLIYTTSNLASGVPTRFSGSGSGTSYSLTISRMEAEDAATYYCQQRSTYPFTFGSGTKLEIQ , please.
Output: 8.89

Task: Which pEC50 value belongs to hu23.211 (antibody, V domains shown, humanized c23 by yeast display) VH: EVQLVQSGAEVKKPGASVKVSCKASGYTLKDTFLHWVRQAPGQRLEWMGRIDPANGNIKYDPKFQGRVTITADTSSNTAYMELSSLRSEDTAVYYCANSPYYYGSGYRIFDVWGQGTLVTVSS VL: EIVLTQSPATLSLSPGERATLSCSAFSSVNYMHWYQQKPGQAPRLLIYTTSNLASGIPARFSGSGSGTDYTLTISSLEPEDFAVYYCQQRSTYPFTFGQGTKLEIK ?
Output: 8.81

Task: Which value of pEC50 has been reported for hu23.207 (antibody, V domains shown, humanized c23 by yeast display) VH: EVQLVQSGAEVKKPGASVKVSCKASGYTLKDTFLHWVRQAPGQRLEWMGKIDPANGNIKYDPKFQGRVTLTADTSSNTAYMELSSLRSEDTAVYYCANSPYYYGSGYRIFDVWGQGTLVTVSS VL: EIVLTQSPATLSLSPGERATLSCSAFSSVNYMHWYQQKPGQSPRLLIYTTSNLASGIPARFSGSGSGTDYTLTISSLEPEDFAVYYCQQRSTYPFTFGQGTKLEIK in the records?
Output: 8.65

Task: Field request: pEC50 | item: hu23.201 (antibody, V domains shown, humanized c23 by yeast display) VH: QVQLVQSGAEVKKPGASVKVSCKASGYTLKDTFLHWVRQAPGQRLEWMGRIDPANGNIKYDPKFQGRVTLTADTSSNTAYMELSSLRSEDTAVYYCANSPYYYGSGYRIFDVWGQGTLVTVSS VL: EIVLTQSPATLSLSPGERATLSCSAFSSVNYMHWYQQKPGQSPRLLIYTTSNLASGIPARFSGSGSGTDYTLTISSLEPEDFAVYYCQQRSTYPFTFGQGTKLEIK
Output: 8.89
